The origin of these recorded values is paper PMC2695835.

Consider the following compounds; for each one, report its GIVA cPLA2 XI(50).
TARGET OR TEST SYSTEM: GIVA cPLA2 (Homo sapiens, UniProt P47712)
Sequence (P47712 whole entry): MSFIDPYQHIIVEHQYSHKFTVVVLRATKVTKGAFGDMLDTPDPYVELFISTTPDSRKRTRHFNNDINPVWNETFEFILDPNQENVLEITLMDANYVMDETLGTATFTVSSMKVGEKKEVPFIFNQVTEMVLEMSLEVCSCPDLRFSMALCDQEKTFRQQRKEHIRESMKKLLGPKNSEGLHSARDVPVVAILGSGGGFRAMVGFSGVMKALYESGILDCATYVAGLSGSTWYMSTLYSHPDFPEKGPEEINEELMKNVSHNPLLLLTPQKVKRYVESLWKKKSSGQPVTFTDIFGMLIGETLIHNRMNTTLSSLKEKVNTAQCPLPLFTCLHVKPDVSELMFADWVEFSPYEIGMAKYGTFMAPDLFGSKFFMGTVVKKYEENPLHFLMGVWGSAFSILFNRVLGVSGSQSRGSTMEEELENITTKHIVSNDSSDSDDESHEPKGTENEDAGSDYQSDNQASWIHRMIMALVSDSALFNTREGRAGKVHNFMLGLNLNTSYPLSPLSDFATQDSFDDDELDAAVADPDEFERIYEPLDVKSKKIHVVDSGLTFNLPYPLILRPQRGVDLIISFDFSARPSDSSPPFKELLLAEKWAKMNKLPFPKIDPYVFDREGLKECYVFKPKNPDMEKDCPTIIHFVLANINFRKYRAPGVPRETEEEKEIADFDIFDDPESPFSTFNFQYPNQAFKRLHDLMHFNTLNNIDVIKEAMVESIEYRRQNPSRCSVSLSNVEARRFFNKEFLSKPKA
ASSAY PROTOCOL: In vitro GIVA cPLA2 inhibition, mixed micellar modified Dole assay
Assay type: biochemical
MEASUREMENT CONTEXT: mole fraction of inhibitor in total substrate interface required to inhibit the enzyme by 50%; mixed micelles

// lookup GIVA cPLA2 XI(50) for CCCCCCCCCCCCCCC(=O)C(=O)N[C@@H](CCCC)C(=O)NCC(=O)O
0.035 ± 0.014 mole fraction

Moving on to CCCCCCCCCCCCCCC(=O)C(=O)N[C@@H](CCCC)C(=O)NCC(=O)OC
0.021 ± 0.009 mole fraction

Moving on to CCCCCCCCCCCCCCC(=O)C(=O)N[C@H](C(=O)NCC(=O)OC(C)(C)C)C(C)C
0.028 ± 0.015 mole fraction

Moving on to CCCCCCCCCCCCCCC(=O)C(=O)N[C@H](C(=O)NCC(=O)O)C(C)C
0.061 ± 0.017 mole fraction
